Cited source: the Immune Epitope Database (IEDB)

biological target: HLA-A*30:02; assay: IEDB peptide-MHC binding, purified MHC/competitive/radioactivity; filed as Kd, often an IC50 or EC50 that approximates it; bounds were set here for any values at or beyond the usual limits of such assays; conditions: source organism: Dengue virus 4 Philippines/H241/1956
REPORTED PROPERTY: pKd
One number for each entry, as −log10 of the molar value.

{"columns": ["SEQ TEXT", "pKd"],
 "data": [
  ["MSYTMCSGKF", 7.09]
]}

Lab note: each sequence below needs its pKd filled in.
1. ISSTPFAEY
2. KATLTEGVY
3. GVPLLAMGCY

Response:
[6.50, 7.40, 6.98]

----------
target: HLA-C*05:01; experiment: IEDB peptide-MHC binding, purified MHC/direct/fluorescence; filed as Kd, often an IC50 or EC50 that approximates it; bounds were set here for any values at or beyond the usual limits of such assays; conditions: source organism: Giardia lamblia ATCC 50803
REPORTED PROPERTY: Kd

Query: Which measured Kd value corresponds to MTYLDGHPV ?
Response: ≥ 20 µM

----------
biological target: HLA-A*30:01; test: IEDB peptide-MHC binding, purified MHC/direct/fluorescence; filed as Kd, often an IC50 or EC50 that approximates it; bounds were set here for any values at or beyond the usual limits of such assays; conditions: source organism: Bacillus cereus NVH0597-99
REPORTED PROPERTY: Kd
Answer format reminder: number followed by unit.

Query: Please provide the recorded Kd for TTLRYPIGK , tested on HLA-A*30:01.
Response: 81 nM

----------
molecular target: HLA-A*02:12; test: IEDB peptide-MHC binding, purified MHC/direct/fluorescence; filed as Kd, often an IC50 or EC50 that approximates it; bounds were set here for any values at or beyond the usual limits of such assays; details: source organism: Sudan ebolavirus
REPORTED PROPERTY: Kd

Query: May I ask what Kd has been recorded for YTENTSSYY ?
Response: ≥ 20 µM

----------
molecular target: HLA-B*40:01; test: IEDB peptide-MHC binding, purified MHC/competitive/fluorescence; filed as Kd, often an IC50 or EC50 that approximates it; bounds were set here for any values at or beyond the usual limits of such assays; conditions: source organism: Corynebacterium glutamicum ATCC 13032
pKd: −log10 of the molar value.
REPORTED PROPERTY: pKd

Query: Quick check: pKd of HLPELIWRS ?
Response: ≤ 4.70

----------
biological target: HLA-B*57:01; test: IEDB peptide-MHC binding, purified MHC/direct/fluorescence; filed as Kd, often an IC50 or EC50 that approximates it; bounds were set here for any values at or beyond the usual limits of such assays; details: source organism: Camelpox virus M-96
REPORTED PROPERTY: Kd

{"columns": ["SEQ TEXT", "RESULT"],
 "data": [
  ["YQYIFLSFF", "≥ 20 µM"]
]}

Please look at the following sequence next.
Query: If you can, please state the reported Kd value of TESDAIRTL .
Response: ≥ 20 µM

----------
Assignment: determine reported pKd for the given sequences.
target: HLA-A*23:01; assay: IEDB peptide-MHC binding, purified MHC/competitive/radioactivity; filed as Kd, often an IC50 or EC50 that approximates it; bounds were set here for any values at or beyond the usual limits of such assays; details: source organism: Dengue virus 2 Jamaica/1409/1983
One number for each entry, as −log10 of the molar value.

{"columns": ["SEQ TEXT", "pKd"],
 "data": [
  ["VHTWTEQYKF", 6.05]
]}

Next, consider the following sequence.
Query: If you can, please state the reported pKd value of PYLGKREDQW .
Response: 5.86
